Reference for the values: patent US12630600B2

- test_target: human glucagon receptor (human, UniProt P47871)
- assay_overview: cell-based or functional assay
Starred links: 1 amine or outer side, 2 acyl side, 3 side chain; linkers in the order of their positions; H or OH if unused. Non-standard residues stand in square brackets, D forms with d. Groups on a side chain read outwards from the residue. No end group written: not given here. *: point of attachment. C20 diacid = O=C(O)CCCCCCCCCCCCCCCCCCC(=O)*; C18 diacid = O=C(O)CCCCCCCCCCCCCCCCC(=O)*; γGlu = O=C(O)[C@H](CCC(=O)[*:2])N[*:1]; αMeF = C[C@](N)(Cc1ccccc1)C(=O)O; AEEA = NCCOCCOCC(=O)O; Aib = CC(C)(N)C(=O)O
Listing: cAMP production EC50 of selected binders
quantity_measured: cAMP production EC50 (nM)

H[Aib]QGTFTSDVSK[αMeF]LDTKRARDFVQWLLE[Aib]G-OH (not fully specified (residue 17)) [Peptide 520]
1.62
H[Aib]QGTFTSDVSK[αMeF]LDSK([AEEA-AEEA-γGlu-C18 diacid])RAQDFVQWLL[Aib]TE-OH (not fully specified) [Peptide 150]
0.355
H[Aib]QGTFTSDVSK[αMeF]LDTK([AEEA-AEEA-γGlu-C20 diacid])RAQDFVRWLLE[Aib]K-OH [Peptide 503]
0.0849
H[Aib]QGTFTSDVSK[αMeF]LDTK([AEEA-AEEA-γGlu-C20 diacid])RAQDFVRWLLR[Aib]K-OH [Peptide 494]
0.212
H[Aib]QGTFTSDVSK[αMeF]LDTK([AEEA-AEEA-γGlu-C18 diacid])RAQDFVQWLL[Aib]E-OH [Peptide 483]
0.169
